Biological target: JAK3 enzyme (Homo sapiens, UniProt P52333)
Sequence (P52333 1-1124): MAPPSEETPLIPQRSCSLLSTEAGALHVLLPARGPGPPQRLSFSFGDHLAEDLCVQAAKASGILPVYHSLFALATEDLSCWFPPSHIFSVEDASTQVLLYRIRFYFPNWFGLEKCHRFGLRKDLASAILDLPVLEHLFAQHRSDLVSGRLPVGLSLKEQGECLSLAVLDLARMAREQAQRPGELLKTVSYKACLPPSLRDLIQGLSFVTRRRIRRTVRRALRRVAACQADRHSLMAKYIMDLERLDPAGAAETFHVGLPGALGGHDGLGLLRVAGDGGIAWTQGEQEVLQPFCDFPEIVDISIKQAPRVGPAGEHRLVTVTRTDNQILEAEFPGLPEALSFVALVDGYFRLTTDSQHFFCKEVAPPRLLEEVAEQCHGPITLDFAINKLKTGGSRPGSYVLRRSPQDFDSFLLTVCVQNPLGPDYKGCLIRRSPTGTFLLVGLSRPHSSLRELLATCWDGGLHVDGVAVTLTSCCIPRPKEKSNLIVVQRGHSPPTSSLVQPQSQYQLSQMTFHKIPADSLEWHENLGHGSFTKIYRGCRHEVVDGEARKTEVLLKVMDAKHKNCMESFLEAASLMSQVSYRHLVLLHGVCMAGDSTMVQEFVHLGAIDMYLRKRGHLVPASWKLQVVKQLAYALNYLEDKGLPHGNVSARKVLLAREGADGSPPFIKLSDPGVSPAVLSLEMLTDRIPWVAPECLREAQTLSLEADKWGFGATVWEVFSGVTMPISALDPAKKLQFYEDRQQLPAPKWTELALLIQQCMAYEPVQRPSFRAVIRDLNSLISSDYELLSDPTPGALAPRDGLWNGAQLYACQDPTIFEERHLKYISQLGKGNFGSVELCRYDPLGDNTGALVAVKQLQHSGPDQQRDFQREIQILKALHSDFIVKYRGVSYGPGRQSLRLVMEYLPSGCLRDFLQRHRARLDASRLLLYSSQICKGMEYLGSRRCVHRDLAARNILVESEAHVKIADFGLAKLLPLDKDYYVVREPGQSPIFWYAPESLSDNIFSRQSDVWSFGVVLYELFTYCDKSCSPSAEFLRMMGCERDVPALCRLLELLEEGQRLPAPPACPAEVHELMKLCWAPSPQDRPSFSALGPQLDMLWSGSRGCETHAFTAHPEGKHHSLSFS
Assay: JAK Caliper Enzyme Assay at 1 mM ATP
Format: biochemical
Measured Attribute: pIC50
Numbers only, as −log10 of the molar value.

Illustrative cases are given below, each with its answer.
INSERT INTO results (compound, measured_target, measured_attribute, experimental_result) VALUES
  ('C=CC(=O)N1CCN(c2cnc3[nH]cc(C(=O)N[C@@H](C)COc4ccccc4)c3n2)CC1(C)C [Example 147]', 'JAK3 enzyme (Homo sapiens, UniProt P52333)', 'pIC50', 5.43),
  ('C=CC(=O)N1CCC(Nc2cnc3[nH]cc(C(=O)NCc4cnn(-c5cccc(F)c5)c4)c3n2)CC1 [Example 192]', 'JAK3 enzyme (Homo sapiens, UniProt P52333)', 'pIC50', 7.54);

Each of the following entries comes with a recorded value; kindly state pIC50 for each.
1. C=CC(=O)N1CCC(Oc2cnc3[nH]cc(-c4n[nH]c(C)n4)c3n2)CC1 [Example 115]
2. C=CC(=O)N1CCC(Oc2cnc3[nH]cc(C(=O)N[C@H](C)CC)c3n2)CC1 [Example 227]

Ans.
1: 6.03; 2: 7.66
